The reported numbers originate from patent US5556862A.

target: PDEIV; assay: Inhibitory activity towards phosphodiesterase type IV isozyme ([3H] cAMP substrate, in the presence of 10 μM cilostazol); assay type: biochemical; settings: type IV isozyme from porcine artery, 30° C., pH 7.5, hydrochloride
Where a name gives a salt, the structure may show the parent alone.
parameter_measured: pIC50
Scale note: pIC50 = -log10(concentration in M).

Endpoint output: pIC50 of CCOc1ccc(CC2=NCCc3cc(OCC)c(OCC)cc32)cc1OCC [Compound 4, hydrochloride] . Value?
5.09
